Reference source: patent US11993599B2

Target: BRM (Homo sapiens, UniProt P51531)
Sequence (P51531 whole entry): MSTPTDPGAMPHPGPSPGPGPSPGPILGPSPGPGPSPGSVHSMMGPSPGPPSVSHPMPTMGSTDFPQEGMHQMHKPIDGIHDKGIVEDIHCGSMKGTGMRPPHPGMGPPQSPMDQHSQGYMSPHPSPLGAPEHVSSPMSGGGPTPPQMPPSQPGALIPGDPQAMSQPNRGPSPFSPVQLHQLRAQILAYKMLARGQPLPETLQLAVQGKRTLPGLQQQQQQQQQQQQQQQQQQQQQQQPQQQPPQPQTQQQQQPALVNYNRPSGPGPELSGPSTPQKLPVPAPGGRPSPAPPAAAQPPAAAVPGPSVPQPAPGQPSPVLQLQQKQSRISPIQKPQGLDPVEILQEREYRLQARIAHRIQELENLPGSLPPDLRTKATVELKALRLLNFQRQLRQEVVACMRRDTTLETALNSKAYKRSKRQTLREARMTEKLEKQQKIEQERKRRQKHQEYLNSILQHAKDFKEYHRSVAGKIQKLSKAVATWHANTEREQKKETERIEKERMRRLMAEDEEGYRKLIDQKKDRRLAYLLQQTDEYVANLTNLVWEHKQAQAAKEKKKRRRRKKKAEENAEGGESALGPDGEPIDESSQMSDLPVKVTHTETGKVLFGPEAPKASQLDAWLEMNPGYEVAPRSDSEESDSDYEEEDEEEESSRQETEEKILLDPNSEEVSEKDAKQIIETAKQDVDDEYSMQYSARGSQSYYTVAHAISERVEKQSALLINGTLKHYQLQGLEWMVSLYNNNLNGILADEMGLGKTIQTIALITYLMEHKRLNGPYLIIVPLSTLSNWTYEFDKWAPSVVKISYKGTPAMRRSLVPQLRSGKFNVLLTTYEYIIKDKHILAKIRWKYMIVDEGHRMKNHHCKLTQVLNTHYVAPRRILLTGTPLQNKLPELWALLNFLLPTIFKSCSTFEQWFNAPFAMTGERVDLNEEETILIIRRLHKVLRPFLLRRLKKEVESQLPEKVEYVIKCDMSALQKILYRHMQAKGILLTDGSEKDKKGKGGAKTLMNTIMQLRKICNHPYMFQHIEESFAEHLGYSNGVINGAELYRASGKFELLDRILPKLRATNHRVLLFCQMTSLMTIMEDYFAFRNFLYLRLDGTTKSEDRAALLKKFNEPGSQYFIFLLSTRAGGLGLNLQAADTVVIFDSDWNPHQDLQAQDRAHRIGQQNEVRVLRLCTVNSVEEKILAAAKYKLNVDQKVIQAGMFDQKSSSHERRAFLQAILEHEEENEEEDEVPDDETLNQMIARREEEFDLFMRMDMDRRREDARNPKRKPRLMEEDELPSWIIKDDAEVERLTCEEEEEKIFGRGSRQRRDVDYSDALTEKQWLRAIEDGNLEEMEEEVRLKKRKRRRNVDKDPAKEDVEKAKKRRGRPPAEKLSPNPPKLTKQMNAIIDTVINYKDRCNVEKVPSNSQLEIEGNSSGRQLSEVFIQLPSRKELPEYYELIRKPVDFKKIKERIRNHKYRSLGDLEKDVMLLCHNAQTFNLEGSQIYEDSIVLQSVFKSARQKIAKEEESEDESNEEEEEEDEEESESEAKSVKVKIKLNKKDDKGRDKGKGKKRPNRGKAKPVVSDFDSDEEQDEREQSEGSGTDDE
Test: HiBIT nanoluciferase complementation screen for BRM degraders
Format: cell-based
Details: compound 10 μM, 18 hours, BRM-HiBIT KI Hela cells; luminescence normalized: DMSO only = 0%, no cells = −100%
Text: Example B-1: HiBIT Nanoluciferase Complementation Screen for BRM Degraders To assess BRM degradation, compounds were screened for their effect of BRM levels using the HiBIT nanoluciferase complementation strategy developed at Promega. In brief, a HELA cell line that was genetically modified via CRISPR/CAS9 was used to fuse the HiBIT sequence at the 3′ end of BRM (BRM-HiBIT KI Hela). BRM protein levels were then detected using the Nano-Glo HiBIT lytic detection reagent (Promega). […]
measured property: Median HiBiT activity 10 μM (%)

>  <compound>
Nc1nnc(-c2ccccc2O)cc1N1CC2CCC(C1)N2c1ccnc(C#CCN2CCNCC2=O)c1

>  <unit of measurement>
%

>  <val>
−56.7556

$$$$
>  <compound>
Cn1cc(C#Cc2cc(N3C4CCC3CN(c3cc(-c5ccccc5O)nnc3N)C4)ccn2)cn1

>  <unit of measurement>
%

>  <val>
−42.1813

$$$$
>  <compound>
C[C@@H](N)C#Cc1cc(N2C3CCC2CN(c2cc(-c4ccccc4O)nnc2N)C3)ccn1

>  <unit of measurement>
%

>  <val>
−58.9213

$$$$
>  <compound>
Nc1nnc(-c2ccccc2O)cc1N1CC2CCC(C1)N2c1ccnc(C#CC2CCCN2)c1 (stereo not shown)

>  <unit of measurement>
%

>  <val>
−50.5501

$$$$
>  <compound>
NCC(=O)NCCCc1cc(N2C3CCC2CN(c2cc(-c4ccccc4O)nnc2N)C3)ccn1

>  <unit of measurement>
%

>  <val>
−30.3732

$$$$
>  <compound>
Nc1nnc(-c2ccccc2O)cc1N1CC2CCC(C1)N2c1ccnc(C#CC2CCNCC2)c1

>  <unit of measurement>
%

>  <val>
−56.3342

$$$$
>  <compound>
Nc1nnc(-c2ccccc2O)cc1N1CC2CCC(C1)N2c1ccnc(C#CC2CNCCO2)c1 (stereo not shown)

>  <unit of measurement>
%

>  <val>
−25.5864

$$$$
>  <compound>
Nc1nnc(-c2ccccc2O)cc1N1CC2CCC(C1)N2c1ccnc(C#CC2CCCNC2)c1 (stereo not shown)

>  <unit of measurement>
%

>  <val>
−23.8415

$$$$
>  <compound>
Nc1nnc(-c2ccccc2O)cc1N1CC2CCC(C1)N2c1ccnc(C#CCOC2CCCNC2)c1 (stereo not shown)

>  <unit of measurement>
%

>  <val>
−34.0604

$$$$
>  <compound>
Nc1nnc(-c2ccccc2O)cc1N1CC2CCC(C1)N2c1ccnc(C#CCN2CCC(N)C2)c1 (stereo not shown)

>  <unit of measurement>
%

>  <val>
−55.0083

$$$$
>  <compound>
Nc1nnc(-c2ccccc2O)cc1N1CC2CCC(C1)N2c1ccnc(C#C[C@H]2CC[C@H](N)CC2)c1

>  <unit of measurement>
%

>  <val>
−33.4085

$$$$
>  <compound>
Nc1nnc(-c2ccccc2O)cc1N1CC2CCC(C1)N2c1ccnc(C#CC2CNC2)c1

>  <unit of measurement>
%

>  <val>
−67.7912

$$$$
>  <compound>
Nc1nnc(-c2ccccc2O)cc1N1CC2CCC(C1)N2c1ccnc(C#CCCCCO)c1

>  <unit of measurement>
%

>  <val>
−28.4819

$$$$
>  <compound>
NCCCCCCc1cc(N2C3CCC2CN(c2cc(-c4ccccc4O)nnc2N)C3)ccn1

>  <unit of measurement>
%

>  <val>
−8.91

$$$$
>  <compound>
Nc1nnc(-c2ccccc2O)cc1N1CC2CCC(C1)N2c1ccnc(C#CCN2CCCC(N)C2)c1 (stereo not shown)

>  <unit of measurement>
%

>  <val>
−47.9900

$$$$
>  <compound>
NCCCCCCC#Cc1cc(N2C3CCC2CN(c2cc(-c4ccccc4O)nnc2N)C3)ccn1

>  <unit of measurement>
%

>  <val>
−53.1423

$$$$
>  <compound>
Nc1nnc(-c2ccccc2O)cc1N1CC2CCC(C1)N2c1ccnc(C#CCN2CCNCC2)c1

>  <unit of measurement>
%

>  <val>
−44.9026

$$$$
>  <compound>
Nc1nnc(-c2ccccc2O)cc1N1CC2CCC(C1)N2c1ccnc(C#CCN2CCOCC2)c1

>  <unit of measurement>
%

>  <val>
−33.5251

$$$$
>  <compound>
NCC#Cc1cc(N2C3CCC2CN(c2cc(-c4ccccc4O)nnc2N)C3)ccn1

>  <unit of measurement>
%

>  <val>
−43.5174

$$$$
>  <compound>
Nc1nnc(-c2ccccc2O)cc1N1CC2CCC(C1)N2c1ccnc(C#CCCN2CCNCC2)c1

>  <unit of measurement>
%

>  <val>
−81.2914

$$$$
>  <compound>
Nc1nnc(-c2ccccc2O)cc1N1CC2CCC(C1)N2c1ccnc(C#CCOCCO)c1

>  <unit of measurement>
%

>  <val>
−51.5968

$$$$
>  <compound>
Nc1nnc(-c2ccccc2O)cc1N1CC2CCC(C1)N2c1ccnc(C#CC2CCOCC2)c1

>  <unit of measurement>
%

>  <val>
−33.6373

$$$$
>  <compound>
CN(CC#Cc1cc(N2C3CCC2CN(c2cc(-c4ccccc4O)nnc2N)C3)ccn1)CCO

>  <unit of measurement>
%

>  <val>
−39.6172

$$$$
>  <compound>
Nc1nnc(-c2ccccc2O)cc1N1CC2CCC(C1)N2c1ccnc(C#CC2CCN2)c1 (stereo not shown)

>  <unit of measurement>
%

>  <val>
−51.9890

$$$$
>  <compound>
CCN(CC)CC#Cc1cc(N2C3CCC2CN(c2cc(-c4ccccc4O)nnc2N)C3)ccn1

>  <unit of measurement>
%

>  <val>
−31.0597

$$$$
>  <compound>
Nc1nnc(-c2ccccc2O)cc1N1CC2CCC(C1)N2c1ccnc(C#CCN2CCCC2)c1

>  <unit of measurement>
%

>  <val>
−28.0898

$$$$
>  <compound>
NCCCc1cc(N2C3CCC2CN(c2cc(-c4ccccc4O)nnc2N)C3)ccn1

>  <unit of measurement>
%

>  <val>
−55.0132

$$$$
>  <compound>
Nc1nnc(-c2ccccc2O)cc1N1CC2CCC(C1)N2c1ccnc(C#CCC2CCCCN2)c1 (stereo not shown)

>  <unit of measurement>
%

>  <val>
−32.1865

$$$$
>  <compound>
Nc1nnc(-c2ccccc2O)cc1N1CC2CCC(C1)N2c1ccnc(C#CCC2CCNC2)c1 (stereo not shown)

>  <unit of measurement>
%

>  <val>
−29.4355

$$$$
>  <compound>
Nc1nnc(-c2ccccc2O)cc1N1CC2CCC(C1)N2c1ccnc(C#CCCO)c1

>  <unit of measurement>
%

>  <val>
−28.4202

$$$$
>  <compound>
NCCC#Cc1cc(N2C3CCC2CN(c2cc(-c4ccccc4O)nnc2N)C3)ccn1

>  <unit of measurement>
%

>  <val>
−47.5549

$$$$
>  <compound>
Nc1nnc(-c2ccccc2O)cc1N1CC2CCC(C1)N2c1ccnc(C#CCC2CCCN2)c1 (stereo not shown)

>  <unit of measurement>
%

>  <val>
−29.4258

$$$$
>  <compound>
Nc1nnc(-c2ccccc2O)cc1N1CC2CCC(C1)N2c1ccnc(C#CC2CCNC2)c1 (stereo not shown)

>  <unit of measurement>
%

>  <val>
−55.1975

$$$$
>  <compound>
Nc1nnc(-c2ccccc2O)cc1N1CC2CCC(C1)N2c1ccnc(C#CCN2CCS(=O)(=O)CC2)c1

>  <unit of measurement>
%

>  <val>
−56.4043

$$$$
